biological target: PA ATP synthase (Pseudomonas aeruginosa); construct: Inverted membrane vesicles were prepared from PA 9027; endogenous in cells; experiment: NADH-driven ATP synthesis inhibition, PA inverted membrane vesicles; conditions: inverted membrane vesicles from PA 9027; NADH-driven; end point luminescence assay
OBSERVATION TYPE: pIC50
Reminder that pIC50 means the negative base-10 logarithm of the concentration expressed in mol/L.

Recorded pIC50 for CN(C)Cc1ccc(CNCc2cc3ccccc3nc2SCc2ccccc2)cc1 on PA ATP synthase (Pseudomonas aeruginosa) was 5.79

###

Each entry below lists one item and its recorded pIC50 value.
biological target: PA ATP synthase cIle65Phe mutant (Pseudomonas aeruginosa, UniProt Q9HT15, I65F); assay: NADH-driven ATP synthesis inhibition, DK8/pASH20 cI65F membrane vesicles
Reminder that pIC50 means the negative base-10 logarithm of the concentration expressed in mol/L.

# count of solved cases: 2
COC(=O)[C@H](Cc1ccc(O)cc1)NCc1cc2ccccc2nc1SC [Compound 1, reference compound] :: 4.66
CN(C)Cc1ccc(CNCc2cc3ccccc3nc2SCc2ccccc2)cc1 :: 5.09

// next item, pIC50 requested
Just so you know, measured pIC50 for CSc1nc2ccccc2cc1CNCc1ccc(CN(C)C)cc1 came out at 4.89

FYI, the data here is from paper PMC10714390.
